# EXPERIMENTAL_TARGET: myeloperoxidase (MPO) (Homo sapiens, UniProt P05164)
# Sequence (P05164 49-745): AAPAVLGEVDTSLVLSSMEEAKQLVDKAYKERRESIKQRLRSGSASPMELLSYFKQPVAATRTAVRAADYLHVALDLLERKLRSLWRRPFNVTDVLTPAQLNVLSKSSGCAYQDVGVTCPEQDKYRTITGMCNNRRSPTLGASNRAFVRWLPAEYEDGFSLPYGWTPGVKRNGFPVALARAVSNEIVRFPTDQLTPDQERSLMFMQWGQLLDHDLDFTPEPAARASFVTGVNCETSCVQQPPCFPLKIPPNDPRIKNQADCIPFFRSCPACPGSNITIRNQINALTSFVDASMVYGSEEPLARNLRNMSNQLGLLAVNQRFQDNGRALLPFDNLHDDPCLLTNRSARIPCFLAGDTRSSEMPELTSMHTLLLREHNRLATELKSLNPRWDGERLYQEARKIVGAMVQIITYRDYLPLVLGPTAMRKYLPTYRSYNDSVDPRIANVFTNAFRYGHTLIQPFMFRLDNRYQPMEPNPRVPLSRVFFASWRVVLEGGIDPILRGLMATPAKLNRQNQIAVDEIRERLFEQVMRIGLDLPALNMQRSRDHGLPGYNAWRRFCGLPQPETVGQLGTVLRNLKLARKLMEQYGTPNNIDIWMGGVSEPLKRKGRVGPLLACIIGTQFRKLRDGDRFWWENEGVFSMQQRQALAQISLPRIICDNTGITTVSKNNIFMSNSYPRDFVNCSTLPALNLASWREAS
# ASSAY_PROTOCOL: MPO + Br halogenation inhibition (MCD assay)
# Type: biochemical
# DETAILS: bromide as substrate

# MOLECULE, IC50, nM
rows = [
    ("NNC(=O)CNc1ccc(F)cc1F", 2040),
    ("NNC(=O)CNc1ccccc1 [Compound (6), phenylaminoethane-hydrazide]", 84600),
    ("NNC(=O)CNc1ccccc1F [(3), 2-fluoro-phenylaminoethane-hydrazide]", 1900),
    ("NNC(=O)CNc1ccc(F)c(Cl)c1", 547),
    ("NNC(=O)CNc1ccc(Cl)cc1 [(2), 4-chloro-phenylaminoethane-hydrazide]", 1200),
    ("Cc1ccc(NCC(=O)NN)cc1 [(8), 4-methyl-phenylaminoethane-hydrazide]", 29400),
    ("NNC(=O)CNc1cccc(Br)c1 [(5), 3-bromo-phenylaminoethane-hydrazide]", 1600),
    ("NNC(=O)CNc1ccc(F)cc1 [(1), 4-fluoro-phenylaminoethane-hydrazide]", 4120),
]
